Test system: TK-10 renal
Test: NCI tumour cell line growth inhibition, 48 h; in the data active = GI50 below about 0.43 µM; inactive = the rest
Labels: active, inactive

[
  {
    "molecule": "c1ccc(-c2c(-c3ccccc3)[n+](Cc3ccc4ccccc4c3)c(-c3cccc4ccccc34)n2Cc2ccc3ccccc3c2)cc1",
    "labelValue": "active"
  },
  {
    "molecule": "CC(C)(C)c1ccc(C(=O)Nc2sc3c(c2C#N)CCC(=O)C3)cc1",
    "labelValue": "inactive"
  },
  {
    "molecule": "Cc1cccc2c(C(=O)O[C@H](C(N)=O)[C@]3(C)CO3)cccc12",
    "labelValue": "inactive"
  },
  {
    "molecule": "COc1ccc2nc(NNC(=O)c3cnccn3)c3cccn3c2c1",
    "labelValue": "active"
  },
  {
    "molecule": "FC(F)(F)c1ccc(-c2cnc(Cl)nc2NC2CCCCCC2)cc1",
    "labelValue": "inactive"
  },
  {
    "molecule": "Cc1cc(C)c(-c2cc(O)c(-c3c(C)cc(C)cc3C)cc2O)c(C)c1",
    "labelValue": "inactive"
  },
  {
    "molecule": "[O-]c1ccccc1/C=N/c1nccs1.[O-]c1ccccc1/C=N/c1nccs1.[O]=[U+2]=[O]",
    "labelValue": "inactive"
  },
  {
    "molecule": "COc1ccc(Nc2nccc(Nc3ccc4[nH]ncc4c3)n2)cc1",
    "labelValue": "inactive"
  },
  {
    "molecule": "CCCCCCCCc1cc[n+](CC(=O)c2ccc(Br)cc2)cc1",
    "labelValue": "inactive"
  },
  {
    "molecule": "Clc1ccc(CCC(Cn2ccnc2)Sc2c(Cl)cccc2Cl)cc1 (stereo not drawn)",
    "labelValue": "inactive"
  },
  {
    "molecule": "COc1ccc(CCn2c3c(c4c(O)cccc42)C(=O)c2ccccc2-3)cc1OC",
    "labelValue": "inactive"
  },
  {
    "molecule": "Cc1ccc(-c2c(C#N)[n+](=O)c3cc(Cl)c(Cl)cc3n2[O-])cc1",
    "labelValue": "inactive"
  },
  {
    "molecule": "COc1cc(/C=N/Nc2ncnc3[nH]ncc23)ccc1O",
    "labelValue": "inactive"
  }
]

----------
Tested on: RXF-631 renal
Assay: NCI tumour cell line growth inhibition, 48 h
molecules and their reported TGI

[
  {
    "molecule": "COc1ccc(=[O+]C)c2nssc1-2",
    "TGI": "> 100 µM"
  },
  {
    "molecule": "CC(=O)N1CCc2[nH]c3ccccc3c2CC1",
    "TGI": "> 100 µM"
  },
  {
    "molecule": "Cc1ccc(NC(=O)OCC(COc2ccc(Cl)cc2)OC(=O)Nc2ccc(C)cc2)cc1 (centres undefined)",
    "TGI": "24.9 µM"
  },
  {
    "molecule": "CCOc1nc(OCC)nc(-c2cccn2-c2ccccc2)n1",
    "TGI": "> 100 µM"
  }
]

----------
Tested on: IGROV1 ovarian
Assay: NCI tumour cell line growth inhibition, 48 h

[
  {
    "compound": "O=S1CCN(Cc2ccc(-c3ccc4ncnc(Nc5ccc(OCc6cccc(F)c6)c(Cl)c5)c4c3)o2)CC1",
    "GI50": "0.226 µM"
  },
  {
    "compound": "COc1ccc2c(c1)C(=O)c1c-2n(CCCCl)c(=O)c2cc(OC)c(OC)cc12",
    "GI50": "17.1 µM"
  },
  {
    "compound": "FC(F)(F)c1ccc(-c2cnc(Cl)nc2NC2CCCCCC2)cc1",
    "GI50": "> 100 µM"
  },
  {
    "compound": "Clc1ccc(CCC(Cn2ccnc2)Sc2c(Cl)cccc2Cl)cc1 (stereo not given)",
    "GI50": "4.45 µM"
  },
  {
    "compound": "COc1ccc(C2CC(c3cc(Cl)c(C)cc3O)=NN2c2ccc(S(N)(=O)=O)cc2)cc1OC (stereo not given)",
    "GI50": "2.34 µM"
  },
  {
    "compound": "Cc1cc(-c2ncc(-c3cccnc3)cc2/C=C/c2ccccc2)cnc1-c1cccnc1",
    "GI50": "5.39 µM"
  },
  {
    "compound": "COc1ccc(CCn2c3c(c4c(O)cccc42)C(=O)c2ccccc2-3)cc1OC",
    "GI50": "0.818 µM"
  },
  {
    "compound": "Cc1ccc(-c2c(C#N)[n+](=O)c3cc(Cl)c(Cl)cc3n2[O-])cc1",
    "GI50": "3.41 µM"
  },
  {
    "compound": "CCCC(c1nnnn1C1CCCCC1)N1CCN(C(=O)c2ccco2)CC1 (stereo not given)",
    "GI50": "> 100 µM"
  },
  {
    "compound": "O=C1Nc2ccccc2/C1=C/C(=N/c1nnc(-c2ccccc2)s1)c1ccccc1",
    "GI50": "2.13 µM"
  }
]
